- Assayed target: UniProtKB Q7ZJM1
- Assay notes: Inhibition of HIV1 integrase 3'-processing activity using labelled oligonucleotide substrate by ELISA
Recorded metric: pIC50
Scale explanation: pIC50 corresponds to minus log10 of a concentration expressed in moles per litre.

Sure, the documented pIC50 for O=C(/C=C/c1cc(O)c(O)cc1[N+](=O)[O-])O[C@H](Cc1cc(O)c(O)cc1[N+](=O)[O-])C(=O)O is 4.28

###

Assign pIC50 to each entry below.
- Assayed target: Human immunodeficiency virus type 1 integrase (Human immunodeficiency virus 1)
- Assay notes: Inhibition of HIV1 integrase using labelled oligonucleotide substrate in presence of bovine serum albumin by ELISA
Scale explanation: pIC50 corresponds to minus log10 of a concentration expressed in moles per litre.

Sure, the documented pIC50 for O=C(/C=C/c1cc(O)c(O)cc1[N+](=O)[O-])O[C@H](Cc1cc(O)c(O)cc1[N+](=O)[O-])C(=O)O is 4.68

Sure, the documented pIC50 for O=C(/C=C/c1ccc(O)c(O)c1)O[C@H](Cc1ccc(O)c(O)c1)C(=O)O is 4.20

Sure, the documented pIC50 for O=C(/C=C/c1ccc(O)c(O)c1)O[C@H](Cc1cc(O)c(O)cc1[N+](=O)[O-])C(=O)O is 4.26

###

- Assay notes: Cytotoxicity against human MT4 cells by MTT method
- Assay type: cell-based
Recorded metric: CC50
Numeric answer plus unit only.

Sure, the documented CC50 for O=C(/C=C/c1ccc(O)c(O)c1)O[C@H](Cc1cc(O)c(O)cc1[N+](=O)[O-])C(=O)O is 160 µM

Sure, the documented CC50 for O=C(NCc1ccc(F)cc1)c1nc(N2CCCCS2(=O)=O)c2cccnc2c1O is 2.2 µM

Sure, the documented CC50 for O=C(/C=C/c1cc(O)c(O)cc1[N+](=O)[O-])O[C@H](Cc1cc(O)c(O)cc1[N+](=O)[O-])C(=O)O is 45.5 µM

Sure, the documented CC50 for O=C(/C=C/c1ccc(O)c(O)c1)O[C@H](Cc1ccc(O)c(O)c1)C(=O)O is 55 µM

###

- Assayed target: Human immunodeficiency virus type 1 integrase (Human immunodeficiency virus 1, UniProt Q7ZJM1)
- Sequence (Q7ZJM1 whole entry): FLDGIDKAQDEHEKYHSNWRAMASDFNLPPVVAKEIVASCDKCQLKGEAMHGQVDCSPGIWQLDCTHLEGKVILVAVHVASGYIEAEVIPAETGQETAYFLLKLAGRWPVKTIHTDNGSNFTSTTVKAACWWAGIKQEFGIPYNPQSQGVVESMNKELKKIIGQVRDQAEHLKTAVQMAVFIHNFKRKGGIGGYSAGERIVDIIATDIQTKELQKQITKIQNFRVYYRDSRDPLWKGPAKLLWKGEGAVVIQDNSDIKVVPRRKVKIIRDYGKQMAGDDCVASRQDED
- Assay notes: Inhibition of HIV1 integrase using labelled oligonucleotide substrate by ELISA
Recorded metric: IC50 (nM)
Report the value in nM with no unit label.

Sure, the documented IC50 for O=C(/C=C/c1cc(O)c(O)cc1[N+](=O)[O-])O[C@H](Cc1cc(O)c(O)cc1[N+](=O)[O-])C(=O)O is 150

Sure, the documented IC50 for O=C(/C=C/c1ccc(O)c(O)c1)O[C@H](Cc1cc(O)c(O)cc1[N+](=O)[O-])C(=O)O is 1400

Data origin: ChEMBL document CHEMBL1144714
